IC50 values, listed per item
target: purified recombinant human GSK3β (Homo sapiens); assay: radiometric [33P]-ATP kinase activity assay, GSK3β

Below, each entry is followed by its recorded IC50 result.
- CN1CCN(Cc2ccc(C=C3C(=O)Nc4ccc(CCC#N)cc43)cc2)CC1 (mixture of isomers) [Compound 8]: > 10 µM
- N#Cc1ccc2c(c1)C(=Cc1ccc(CN3CCOCC3)cc1)C(=O)N2 (mixture of isomers) [Compound 11]: 3.37 µM

Q. So what does the record say about IC50 for N#CCCc1ccc2c(c1)C(=Cc1ccc(CN3CCOCC3)cc1)C(=O)N2 (mixture of isomers) [Compound 7] ?
A. > 10 µM

Q. Could you tell me which IC50 is on file for N#CCCc1ccc2c(c1)/C(=C/c1cc(CN3CCOCC3)c[nH]1)C(=O)N2 [Compound 14] ?
A. > 10 µM

Q. Requested read-out: IC50. Entry: N#Cc1ccc2c(c1)/C(=C/c1cc(CN3CCOCC3)c[nH]1)C(=O)N2 [Compound 13]
A. 4.92 µM

* * *

target: purified recombinant human GSK3β (Homo sapiens); test: radiometric [33P]-ATP kinase activity assay, GSK3β
pEC50: −log10 of the molar value.
experimental readout: pEC50

* N#Cc1ccc2c(c1)C(=Cc1ccc(CN3CCOCC3)cc1)C(=O)N2 (mixture of isomers) | 5.47

P: N#Cc1ccc2c(c1)/C(=C/c1cc(CN3CCOCC3)c[nH]1)C(=O)N2
Q: CN1CCN(Cc2ccc(C=C3C(=O)Nc4ccc(C#N)cc43)cc2)CC1 (mixture of isomers)
Q. Hi, I'm comparing two records. Which one has the lower pEC50, P or Q ? Mark your answer with the label of the selected entry.
A. Q

* * *

biological target: purified recombinant human GSK3β (Homo sapiens, UniProt P49841); assay: radiometric [33P]-ATP kinase activity assay, GSK3β; settings: sigmoidal dose-response variable slope
Sequence (P49841 whole entry): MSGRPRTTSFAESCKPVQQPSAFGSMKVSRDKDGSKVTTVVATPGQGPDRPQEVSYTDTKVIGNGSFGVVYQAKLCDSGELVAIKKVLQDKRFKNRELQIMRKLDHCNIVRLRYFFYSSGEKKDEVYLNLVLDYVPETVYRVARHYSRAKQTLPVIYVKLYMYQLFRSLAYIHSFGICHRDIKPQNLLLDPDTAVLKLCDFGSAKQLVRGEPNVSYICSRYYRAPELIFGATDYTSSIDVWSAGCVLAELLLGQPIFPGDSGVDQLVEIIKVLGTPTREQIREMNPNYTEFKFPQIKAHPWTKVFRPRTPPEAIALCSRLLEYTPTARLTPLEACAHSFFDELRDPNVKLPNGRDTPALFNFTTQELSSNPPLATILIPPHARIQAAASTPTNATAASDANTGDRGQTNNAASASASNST
experimental readout: HillSlope (GraphPad Prism best-fit, GSK3β)

- N#Cc1ccc2c(c1)/C(=C/c1cc(CN3CCOCC3)c[nH]1)C(=O)N2: -0.5892
- N#Cc1ccc2c(c1)C(=Cc1ccc(CN3CCOCC3)cc1)C(=O)N2 (mixture of isomers): -0.9491
- CN1CCN(Cc2ccc(C=C3C(=O)Nc4ccc(C#N)cc43)cc2)CC1 (mixture of isomers): -0.9519
- CCN(CC)CCNC(=O)c1c(C)[nH]c(/C=C2\C(=O)Nc3ccc(F)cc32)c1C [Sunitinib, sunitinib, reference compound]: -0.7769

* * *

biological target: purified recombinant human GSK3β (Homo sapiens, UniProt P49841); experiment: radiometric [33P]-ATP kinase activity assay, GSK3β; conditions: GSK3β curve fit, kinase profiling report
experimental readout: Hill Slope

* CCN(CC)CCNC(=O)c1c(C)[nH]c(/C=C2\C(=O)Nc3ccc(F)cc32)c1C [Sunitinib, sunitinib, reference compound] | -0.78
* N#Cc1ccc2c(c1)C(=Cc1ccc(CN3CCOCC3)cc1)C(=O)N2 (mixture of isomers) | -0.95

P: CN1CCN(Cc2ccc(C=C3C(=O)Nc4ccc(C#N)cc43)cc2)CC1 (mixture of isomers)
Q: N#Cc1ccc2c(c1)/C(=C/c1cc(CN3CCOCC3)c[nH]1)C(=O)N2
Q. Looking only at measured Hill Slope, which entry is lower, P or Q ? # reply format: chosen label
A. P
(P: -0.95, Q: -0.59)

* * *

target: purified recombinant human AMPK (α1β1γ1) (Homo sapiens, UniProt P54619+Q13131+Q9Y478); assay: radiometric [33P]-ATP kinase activity assay, AMPK; assay type: biochemical; conditions: sigmoidal dose-response variable slope, Bottom = 0; concentration axis Log(M); read-out: EC50 (GraphPad Prism best-fit, % activity against AMPK)
Sequence (Q13131 whole entry): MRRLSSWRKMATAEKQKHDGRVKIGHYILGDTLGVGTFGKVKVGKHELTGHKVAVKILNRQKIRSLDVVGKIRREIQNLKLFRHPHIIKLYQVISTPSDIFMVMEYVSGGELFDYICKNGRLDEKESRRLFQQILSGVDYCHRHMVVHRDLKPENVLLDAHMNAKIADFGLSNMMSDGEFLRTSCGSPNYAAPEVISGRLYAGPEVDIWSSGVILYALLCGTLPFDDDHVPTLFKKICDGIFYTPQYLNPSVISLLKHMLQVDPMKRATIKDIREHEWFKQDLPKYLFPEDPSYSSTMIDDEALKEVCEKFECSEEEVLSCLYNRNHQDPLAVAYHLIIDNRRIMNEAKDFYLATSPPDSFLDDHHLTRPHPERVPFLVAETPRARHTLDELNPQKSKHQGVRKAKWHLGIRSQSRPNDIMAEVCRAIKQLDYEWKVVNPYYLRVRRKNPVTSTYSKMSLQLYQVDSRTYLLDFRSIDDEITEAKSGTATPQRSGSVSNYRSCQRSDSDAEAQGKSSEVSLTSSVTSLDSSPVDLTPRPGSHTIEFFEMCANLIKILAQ
Sequence (Q9Y478 whole entry partner): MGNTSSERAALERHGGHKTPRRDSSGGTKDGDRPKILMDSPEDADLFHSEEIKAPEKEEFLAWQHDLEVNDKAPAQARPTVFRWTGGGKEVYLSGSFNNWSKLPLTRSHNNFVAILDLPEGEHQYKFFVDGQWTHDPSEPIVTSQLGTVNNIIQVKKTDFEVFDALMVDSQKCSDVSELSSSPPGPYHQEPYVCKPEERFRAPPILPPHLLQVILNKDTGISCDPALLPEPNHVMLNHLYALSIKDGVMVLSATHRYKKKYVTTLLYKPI
Sequence (P54619 whole entry partner): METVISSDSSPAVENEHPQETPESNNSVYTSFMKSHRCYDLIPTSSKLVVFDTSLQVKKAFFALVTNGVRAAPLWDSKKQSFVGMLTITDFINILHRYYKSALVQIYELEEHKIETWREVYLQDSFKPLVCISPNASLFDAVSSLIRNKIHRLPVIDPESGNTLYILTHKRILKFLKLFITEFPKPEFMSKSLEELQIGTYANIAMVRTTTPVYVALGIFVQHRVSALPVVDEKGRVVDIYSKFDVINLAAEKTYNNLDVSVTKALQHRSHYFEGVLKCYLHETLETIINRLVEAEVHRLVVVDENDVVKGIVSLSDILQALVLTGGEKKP
experimental readout: EC50 (M)
Give your result in M as a bare value.

Q. What measured EC50 goes with N#CCCc1ccc2c(c1)/C(=C/c1cc(CN3CCOCC3)c[nH]1)C(=O)N2 ?
A. 5.04e-06

* * *

target: purified recombinant human AMPK (α1β1γ1) (Homo sapiens); test: radiometric [33P]-ATP kinase activity assay, AMPK; format: biochemical; conditions: AMPK curve fit, kinase profiling report
experimental readout: Hill Slope

A: N#CCCc1ccc2c(c1)/C(=C/c1cc(CN3CCOCC3)c[nH]1)C(=O)N2 [Compound 14]
B: N#Cc1ccc2c(c1)/C(=C/c1cc(CN3CCOCC3)c[nH]1)C(=O)N2 [Compound 13]
Q. Pick one, A or B : lowest reported Hill Slope. // return label of chosen record
A. A

* * *

target: purified recombinant human GSK3β (Homo sapiens); assay: radiometric [33P]-ATP kinase activity assay, GSK3β
experimental readout: IC50

Solved cases (2 shown):
* CN1CCN(Cc2ccc(/C=C3\C(=O)Nc4ccc(CCN5CCCCC5)cc43)cc2)CC1 | > 10 µM
* CN1CCN(Cc2ccc(C=C3C(=O)Nc4ccc(C#N)cc43)cc2)CC1 (mixture of isomers) | 8.29 µM

Q. Consider the molecule shown here: O=C1Nc2ccc(CCN3CCCCC3)cc2/C1=C/c1ccc(CN2CCOCC2)cc1 What is its recorded IC50?
A. > 10 µM
